All figures here come from the supplement of paper PMC6555819.

Each record here notes measured PBM binding z-score.
Tested on: RARa:RXR (NR concentration 270 nM, RXRa partner concentration 90 nM)
Assay: PBM binding z-score (relative to random genomic background probes); higher = stronger binding; sequences stand for … in GC…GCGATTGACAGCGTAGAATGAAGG
Please reply with the value in numeric form only.

Solved cases (4 shown):
INSERT INTO assay_data (polymer_sequence, quantitative_result) VALUES
  ('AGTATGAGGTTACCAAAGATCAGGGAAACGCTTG', 2.21),
  ('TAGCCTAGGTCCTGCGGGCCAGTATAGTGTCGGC', -0.898),
  ('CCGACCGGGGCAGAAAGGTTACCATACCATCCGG', 1.83),
  ('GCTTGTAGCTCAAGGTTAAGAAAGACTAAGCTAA', 0.556);

Challenge: Note down PBM binding z-score recorded for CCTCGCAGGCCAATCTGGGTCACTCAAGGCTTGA
Response given: 1.75

Challenge: Note down PBM binding z-score recorded for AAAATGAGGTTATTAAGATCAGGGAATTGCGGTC
Response given: 1.41

Challenge: Note down PBM binding z-score recorded for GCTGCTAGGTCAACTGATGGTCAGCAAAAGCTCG
Response given: 2.93

Challenge: Note down PBM binding z-score recorded for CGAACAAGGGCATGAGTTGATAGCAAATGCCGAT
Response given: -0.0493

Challenge: Note down PBM binding z-score recorded for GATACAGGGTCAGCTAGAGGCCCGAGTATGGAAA
Response given: 2.93

Challenge: Note down PBM binding z-score recorded for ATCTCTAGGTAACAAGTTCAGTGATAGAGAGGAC
Response given: 0.777

Challenge: Note down PBM binding z-score recorded for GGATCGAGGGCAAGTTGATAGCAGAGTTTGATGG
Response given: 0.165

Challenge: Note down PBM binding z-score recorded for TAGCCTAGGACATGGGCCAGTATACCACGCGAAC
Response given: -0.815
